Molecular target: T1, IL-2 receptor βγ complex (human, UniProt P14784 27-551; P31785 23-369)
T1 sequence (looked up) 1: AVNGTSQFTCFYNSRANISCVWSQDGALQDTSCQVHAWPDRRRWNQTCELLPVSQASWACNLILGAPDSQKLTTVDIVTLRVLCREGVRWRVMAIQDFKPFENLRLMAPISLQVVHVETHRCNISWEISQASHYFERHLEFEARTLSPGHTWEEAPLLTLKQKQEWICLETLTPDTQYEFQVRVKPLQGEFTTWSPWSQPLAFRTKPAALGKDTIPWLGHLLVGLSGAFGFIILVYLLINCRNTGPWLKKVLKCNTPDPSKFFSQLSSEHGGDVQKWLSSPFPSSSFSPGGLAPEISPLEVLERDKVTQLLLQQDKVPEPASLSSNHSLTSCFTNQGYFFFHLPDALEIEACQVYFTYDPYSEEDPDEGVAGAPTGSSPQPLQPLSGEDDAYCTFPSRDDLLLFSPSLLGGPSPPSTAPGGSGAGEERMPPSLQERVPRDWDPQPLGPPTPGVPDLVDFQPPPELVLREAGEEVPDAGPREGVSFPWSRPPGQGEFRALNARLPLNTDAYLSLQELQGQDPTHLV
T1 sequence (looked up) 2: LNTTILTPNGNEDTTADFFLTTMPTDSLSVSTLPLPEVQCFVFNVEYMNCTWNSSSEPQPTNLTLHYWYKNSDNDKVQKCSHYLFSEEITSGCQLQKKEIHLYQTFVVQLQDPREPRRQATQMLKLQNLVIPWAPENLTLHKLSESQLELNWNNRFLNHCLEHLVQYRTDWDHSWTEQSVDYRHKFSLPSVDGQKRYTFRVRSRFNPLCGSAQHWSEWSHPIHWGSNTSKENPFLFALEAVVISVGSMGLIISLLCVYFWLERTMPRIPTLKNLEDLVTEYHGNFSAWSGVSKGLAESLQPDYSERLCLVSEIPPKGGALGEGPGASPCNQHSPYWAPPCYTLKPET
Test: cell-based or functional assay
Primed or numbered codes have the meaning given here. [ ]: non-standard residue; d: D form. Ygp(4) = Tyr with amino-capped PEG8 (O-(8x polyethylene glycol-amino)-tyrosine); Yn3(4) = Tyr with azide-capped PEG9 (O-(9x polyethylene glycol-azido)-tyrosine); hSer = N[C@@H](CCO)C(=O)O; Nle = CCCC[C@H](N)C(=O)O
measured_metric: Average EC50, pSTAT5 Assay (T cells) (nM)
Write the number in nM without appending the unit.

>>> recorded_measurement("CMP-168, MMP2 cleaved molecule (ligand, not fully specified; ends and bridges not checked; also: MMP2 cleaved, cleavage site and linker fragments on Lys9 and Glu23 side chains not given here) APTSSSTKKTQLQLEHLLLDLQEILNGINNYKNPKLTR[Nle]L[hSer][Yn3(4)]KF[Ygp(4)][Nle]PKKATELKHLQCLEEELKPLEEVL[hSer]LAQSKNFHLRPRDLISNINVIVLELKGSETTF[hSer]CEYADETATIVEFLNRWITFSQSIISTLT")
6.3

Next item in the queue.
Looking up CMP-169, MMP2 cleaved molecule (ligand, not fully specified; ends and bridges not checked; also: cleaved by MMP2, product not given here, Lys9 side chain linked to another sequence via PEG4, Glu23 side chain linked to another sequence) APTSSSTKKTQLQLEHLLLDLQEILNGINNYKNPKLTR[Nle]L[hSer][Yn3(4)]KF[Ygp(4)][Nle]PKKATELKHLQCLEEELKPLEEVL[hSer]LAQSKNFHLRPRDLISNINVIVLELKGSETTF[hSer]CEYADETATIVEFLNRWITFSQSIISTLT , I see its Average EC50, pSTAT5 Assay (T cells) listed as 5.39
